Assay: Effect on the spontaneous motor activity of mice
Assay type: in vivo, mouse
Settings: mouse, in vivo, ip; measurements one hour after administration; read-out: Intraperitoneal dose which reduced the spontaneous motor activity of mice to 50 % of control values
Experimental: The effect on the spontaneous motor activity was tested in mice. Groups of six animals were given the test compounds intraperitoneally one and three hours before test. The animals were placed individually in an activity meter and the activity was recorded for ten minutes. The dose which reduced the spontaneous motor activity to 50 percent of that of control mice was calculated.
Reported property: ED50 at 1 h (mg/kg)
Response body: numeric value in mg/kg, unit text excluded.

What ED50 at 1 h value was documented for this molecule, NC(N)=NN=Cc1c(Cl)cccc1Cl [Wy-8678, reference compound] ?
3

Moving on to Cl.Nn1cnnc1NN=Cc1c(Cl)cccc1Cl
90

###

Test: Acute toxicity in mice (LD50 i.p.)
Conditions: mouse, in vivo, ip
Reported property: LD50 (mg/kg)
Express it in mg/kg; write the number only.

Cl.Nn1cnnc1NN=Cc1c(Cl)cccc1Cl : 340

Switching to the query record.
Fill in: LD50 of NC(N)=NN=Cc1c(Cl)cccc1Cl [Wy-8678, reference compound] is ___
70
